Source: ChEMBL document CHEMBL1157807

Parameter IC50, tested on Carbonic anhydrase 2 (Homo sapiens), listed per item.
Express your answer in µM, writing the number without its unit.

Query: Answer with reported IC50 of `O=[N+]([O-])O[C@H]1CCCC[C@@H]1O`
Result: 560

Query: Answer with reported IC50 of O=[N+]([O-])O[C@@H]1CC2CCC1[C@@H]2O (some centres undefined)
Result: 65.1

Query: Answer with reported IC50 of O=[N+]([O-])O[C@@H]1CC2c3ccccc3C1[C@@H]2O (some centres undefined)
Result: 98.1

Query: Answer with reported IC50 of O=[N+]([O-])O[C@H]1CC2CCC1[C@@H]2O (some centres undefined)
Result: 73.1

Query: Answer with reported IC50 of `O=[N+]([O-])O[C@H]1CCCCCC[C@@H]1O`
Result: 181

Query: Answer with reported IC50 of `O=[N+]([O-])O[C@@H]1CC[C@H](Br)[C@@H]2CC[C@H]1O2`
Result: 110

Query: Answer with reported IC50 of O=[N+]([O-])O[C@H]1CC=CC[C@@H]1O (racemic)
Result: 790

Query: Answer with reported IC50 of O=[N+]([O-])O[C@H]1CC/C=C\CC[C@@H]1O (racemic)
Result: 243

Query: Answer with reported IC50 of O=[N+]([O-])O[C@@H](CO)c1ccccc1 (single isomer, unassigned)
Result: 632

* * *

Parameter IC50, tested on Carbonic anhydrase 1 (Homo sapiens), listed per item.
Sequence (P00915 whole entry): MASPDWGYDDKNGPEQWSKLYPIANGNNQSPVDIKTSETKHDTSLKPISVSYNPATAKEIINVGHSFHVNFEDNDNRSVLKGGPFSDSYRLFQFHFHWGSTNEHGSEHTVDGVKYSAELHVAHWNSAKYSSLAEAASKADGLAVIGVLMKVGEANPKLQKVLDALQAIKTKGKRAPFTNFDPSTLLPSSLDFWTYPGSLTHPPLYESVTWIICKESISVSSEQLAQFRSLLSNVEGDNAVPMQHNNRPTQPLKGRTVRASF
Express your answer in mM, writing the number without its unit.

Guide cases for IC50, answers given:
O=[N+]([O-])O[C@H]1CCCCCC[C@@H]1O: 23
O=[N+]([O-])O[C@H]1CC/C=C\CC[C@@H]1O (racemic): 21
O=[N+]([O-])O[C@@H]1CC2CCC1[C@@H]2O (stereo partly specified): 7.13
O=[N+]([O-])O[C@@H]1CC2c3ccccc3C1[C@@H]2O (stereo partly specified): 10.2
O=[N+]([O-])O[C@H]1CC2CCC1[C@@H]2O (stereo partly specified): 9.1

The record that follows has no IC50 shown yet.
Query: State the measured IC50 (Carbonic anhydrase 1 (Homo sapiens)) of `O=[N+]([O-])O[C@@H]1CC[C@H](Br)[C@@H]2CC[C@H]1O2`
Result: 12.1

* * *

targetOrSystem: Carbonic anhydrase 2 (Homo sapiens, UniProt P00918)
assayRemarks: Uncompetitive inhibition of human carbonic anhydrase 2 esterase activity by Lineweaver-Burke plot analysis
testReadout: Ki (µM)
Express your answer in µM, writing the number without its unit.

Query: Answer with reported Ki of `O=[N+]([O-])O[C@@H]1CC[C@H](Br)[C@@H]2CC[C@H]1O2`
Result: 223

* * *

targetOrSystem: Carbonic anhydrase 2 (Homo sapiens, UniProt P00918)
assayRemarks: Noncompetitive inhibition of human carbonic anhydrase 2 esterase activity by Lineweaver-Burke plot analysis
testReadout: pKi
Just the number, please; pKi means minus log10 of the concentration in mol/L.

Guide cases for pKi, answers given:
O=[N+]([O-])O[C@H]1CC/C=C\CC[C@@H]1O (racemic): 3.27
O=[N+]([O-])O[C@H]1CCCCCC[C@@H]1O: 3.57
O=[N+]([O-])O[C@H]1CCCC[C@@H]1O: 3.01
O=[N+]([O-])O[C@@H](CO)c1ccccc1 (single isomer, unassigned): 2.94

The record that follows has no pKi shown yet.
Query: Answer with reported pKi of O=[N+]([O-])O[C@H]1CC=CC[C@@H]1O (racemic)
Result: 2.86

* * *

targetOrSystem: Carbonic anhydrase 2 (Homo sapiens)
assayRemarks: Competitive inhibition of human carbonic anhydrase 2 esterase activity by Lineweaver-Burke plot analysis
Quick reference: pKi of the listed items.
Just the number, please; pKi means minus log10 of the concentration in mol/L.

Guide cases for pKi, answers given:
O=[N+]([O-])O[C@H]1CC2CCC1[C@@H]2O (stereo partly drawn): 3.88
O=[N+]([O-])O[C@@H]1CC2c3ccccc3C1[C@@H]2O (stereo partly drawn): 3.71

The record that follows has no pKi shown yet.
Query: Answer with reported pKi of O=[N+]([O-])O[C@@H]1CC2CCC1[C@@H]2O (stereo partly drawn)
Result: 3.92

* * *

targetOrSystem: Carbonic anhydrase 1 (Homo sapiens)
assayRemarks: Noncompetitive inhibition of human carbonic anhydrase 1 esterase activity by Lineweaver-Burke plot analysis
testReadout: Ki (mM)
Express your answer in mM, writing the number without its unit.

Guide cases for Ki, answers given:
O=[N+]([O-])O[C@H]1CC/C=C\CC[C@@H]1O (racemic): 41.8
O=[N+]([O-])O[C@H]1CCCC[C@@H]1O: 221
O=[N+]([O-])O[C@H]1CC=CC[C@@H]1O (racemic): 274
O=[N+]([O-])O[C@@H]1CC[C@H](Br)[C@@H]2CC[C@H]1O2: 22.5

The record that follows has no Ki shown yet.
Query: State the measured Ki (Carbonic anhydrase 1 (Homo sapiens)) of `O=[N+]([O-])O[C@H]1CCCCCC[C@@H]1O`
Result: 45.2

* * *

targetOrSystem: Carbonic anhydrase 1 (Homo sapiens)
assayRemarks: Competitive inhibition of human carbonic anhydrase 1 esterase activity by Lineweaver-Burke plot analysis
Quick reference: pKi of the listed items.
Just the number, please; pKi means minus log10 of the concentration in mol/L.

Guide cases for pKi, answers given:
O=[N+]([O-])O[C@@H]1CC2c3ccccc3C1[C@@H]2O (stereo partly drawn): 1.73
O=[N+]([O-])O[C@H]1CC2CCC1[C@@H]2O (stereo partly drawn): 1.76

The record that follows has no pKi shown yet.
Query: Answer with reported pKi of O=[N+]([O-])O[C@@H]1CC2CCC1[C@@H]2O (stereo partly drawn)
Result: 1.87

* * *

targetOrSystem: Carbonic anhydrase 1 (Homo sapiens)
assayRemarks: Uncompetitive inhibition of human carbonic anhydrase 1 esterase activity by Lineweaver-Burke plot analysis
testReadout: Ki (mM)
Express your answer in mM, writing the number without its unit.

Query: Answer with reported Ki of O=[N+]([O-])O[C@@H](CO)c1ccccc1 (single isomer, unassigned)
Result: 288
